Percent Effect: recorded values
assaySystem: Tyrosyl-tRNA synthetase, putative (Trypanosoma cruzi (strain CL Brener))
assayDetails: Trypanosoma cruzi tyrosyl tRNA synthetase (TcYRS) _High Tyrosine SOP; note: in the data most compounds retested in dose-response had high values
Type: functional
Set-up: scale not given: direction of the effect not stated beside the values
protocolConditions: 30 µM
Give the number; % is assumed, so skip it.

> print(dat)
                                   compound                               assaysystem  observed
1        N#CC1(C(=O)N2CCN(Cc3ccon3)CC2)CCC1  Tyrosyl-tRNA synthetase, putative (Trypanosoma cruzi (strain CL Brener))     0.493
2  CNC(=O)CCc1cc(C)nc(C2CCCN2)n1 (stereo not drawn)  Tyrosyl-tRNA synthetase, putative (Trypanosoma cruzi (strain CL Brener))      3.23
3   CC1CCN(CCNC(=O)C2CCN(S(N)(=O)=O)CC2)CC1  Tyrosyl-tRNA synthetase, putative (Trypanosoma cruzi (strain CL Brener))       2.1

Enquiry: Give its Percent Effect value. Item: COc1ccccc1OCCC(=O)N1CCCC1Cn1cc(C)cn1 (stereo not drawn)
Return: 7.62

Enquiry: Reported Percent Effect, compound Cc1cc(C)nc(NC(=O)C(C)Oc2ccc3c(c2)OCO3)n1 (stereo not drawn) : ____
Return: 8.6

Enquiry: Name the recorded Percent Effect for CCCNC(=O)c1sccc1N(C)S(=O)(=O)c1ccc(Cl)cc1 .
Return: -4.25

Enquiry: Entry under review: Oc1cc(CCC2CCCCN2)cc(-c2ccncc2)c1 (stereo not drawn) . Reported Percent Effect?
Return: 2.15

Enquiry: Fill blank: measured Percent Effect of the compound COCCN(C)C(=O)Cn1cccc(OC)c1=O is ____.
Return: -3.12

Enquiry: If you can, please state the reported Percent Effect value of CC(C)n1c(C2CCCN(Cc3ccnn3C)C2)nc2ccccc21 (stereo not drawn) .
Return: 2.13

###

Parameter Percent Effect: see the listing below.
System: Trypanosoma cruzi
assayDetails: Trypanosoma cruzi phosphomannomutase and mannose-1-phosphate guanylyltransferase assay
Format: functional
Parameters: scale not given: direction of the effect not stated beside the values
protocolConditions: 10 µM
Write the answer as a number in %, unit excluded.

> print(dat)
                                   compound  observed
1         O=C(CCNC(=O)c1ccoc1)Nc1c(F)cccc1F     -2.84
2  Cn1nccc1C(=O)N1CCOC(Cc2cccc(C(F)(F)F)c2)C1 (configuration not stated)     -3.99
3  O=C(CC1CC1)NCc1cc(=O)n2c(n1)CN(Cc1ccoc1)CCC2      7.34

Enquiry: Requested field: Percent Effect. Item: CCN(Cc1ccc2c(c1)OCCO2)C(=O)NCc1cc[nH]n1
Return: -2.06

Enquiry: # input compound: CCCn1nc2c(cc1=O)CN(Cc1cc(C)on1)CC2 ; wanted: its Percent Effect
Return: -1.76

Enquiry: Look up Percent Effect for this compound: NC(=O)COc1ccc(CNCc2ccc(F)c(F)c2)cc1
Return: 0.486

Enquiry: Which measured Percent Effect value corresponds to Cc1ccc2cc(CNCCCO)c(=O)[nH]c2c1 ?
Return: -5.34

Enquiry: So what's the measured Percent Effect for this one? CCOc1nnc(CN2CCOC(CNc3cccnn3)C2)s1 (configuration not stated)
Return: 2.43

Enquiry: Tell me the measured Percent Effect of Cc1nc(CNC(=O)Cn2nc(-c3ccc(F)cc3)oc2=O)cs1 , please.
Return: -1.32

Enquiry: Could you tell me which Percent Effect is on file for CC(O)CC(C)(C)CNC(=O)NCc1cccc(-n2cncn2)c1 (configuration not stated) ?
Return: 2.64

Enquiry: Which Percent Effect reading was recorded for the compound O=C(NCCN1CCC(c2cccs2)CC1)c1ccccc1C(F)(F)F ?
Return: 5.09

Enquiry: What does the record list as Percent Effect for CS(=O)(=O)CCN1CCC2(CCCN(C3CCOCC3)C2=O)C1 (configuration not stated) ?
Return: 2.98
